Data origin: PubChem BioAssay AID504848

Test name: Confirmation screen for delayed death inhibitors of the malarial parasite plastid, 96 hour incubation; further: nearly all actives have a fitted effect of over 60% in size
Condition set: P. falciparum luciferase growth in erythrocytes; series mostly up to 28.7 µM
The campaign covered roughly 2,300 compounds. About 1,400 (61%) were called active. Inconclusive results (about 29%) are left out. The call rests on the fitted dose curve; in most records, active means well fitted inhibition curve with a large enough effect; inconclusive means small, poorly fitted or top-dose-only effect, or effect the other way; inactive means no such curve, though single readings can be large or run the other way. The set was probably picked from earlier hits. The list shows a part of the results.
The reply should name one outcome from true for active, false for inactive

These recorded examples may help you get a feel for the data.
Compound: O=S(=O)(NCC(O)c1ccccc1)c1cc(Cl)sc1Cl (stereo not given)
Assigned category: false

Compound: Nc1ccc[n+](CC(=O)c2ccccc2)c1
Assigned category: true

Compound: O=C(COc1cc2oc(=O)c3c(c2cc1Cl)CCC3)NCC(O)c1ccccc1 (stereo not given)
Assigned category: true

Compound: CC(C)(C)Sc1ccc([N+](=O)[O-])cc1C(=O)Nc1ccncc1
Assigned category: true

Compound: O=C(O)c1ccccc1NS(=O)(=O)c1cccc(-n2sc3ccccc3c2=O)c1
Assigned category: true

### Prompt Entry Cc1c(OCC(=O)NCC(O)c2ccccc2)ccc2c3c(c(=O)oc12)CCC3 (stereo not given) : call = ?
### Response true

### Prompt Please indicate how the test categorized CC(C)(C)OC(=O)[C@H]1[C@H](c2ccc([N+](=O)[O-])cc2)C2(C(=O)c3ccccc3C2=O)C2c3ccccc3C=NN21 (stereo not given in full) .
### Response true

### Prompt Which outcome was assigned to `CSc1ccc(/C=C/C(=O)c2ccc(NC(=O)C(C)C)cc2)cc1` in this test?
### Response false

### Prompt # outcome recorded in this test, key = O=C(CNC(=O)C1CCCCC1)OC(C(=O)c1ccccc1)c1ccccc1 (stereo not given)
### Response true

### Prompt For this compound, state the assay outcome: CC(C)N1CCC(N2CCN(Cc3ccc(-c4ccc(Cl)cc4)o3)CC2CCO)CC1 (stereo not given)
### Response true
